Tested on: MV-4-11 cells
Assay: Cell proliferation assay (CellTiter-Glo), MV-4-11
Format: cell-based, human
Settings: Homo sapiens, MV4-11, 96 h; MV-4-11 (MLL-AF4), 4 days incubation; read-out: Cell antiproliferation assay MV-4-11 IC50
// returns not fulfilled unless IC50 is strictly below 40 nM, in which case fulfilled

Solved entries (count: 5):
{"Smiles Input": "CC[C@H]1CCN[C@@H]1C(=O)N1CCC2(CC1)CN(c1ncnnc1Oc1ccc(F)cc1C(=O)N(CC)C(C)C)C2", "Cat": "fulfilled"}
{"Smiles Input": "CC(C)N(C(=O)c1cc(F)ccc1Oc1nncnc1N1CC2(CCN(C(=O)[C@@H]3C[C@@H](C)CN3)CC2)C1)C(C)C", "Cat": "fulfilled"}
{"Smiles Input": "CC[C@@H]1CCN[C@H]1C(=O)N1CCC2(CC1)CN(c1ncnnc1Oc1ccc(F)cc1C(=O)N(CC)C(C)C)C2", "Cat": "not fulfilled"}
{"Smiles Input": "CCN(C(=O)c1cc(F)ccc1Oc1cncnc1N1CC2(CCN(C(=O)[C@@H]3C[C@@H](O)CN3)CC2)C1)C(C)C", "Cat": "not fulfilled"}
{"Smiles Input": "CC(C)N(C(=O)c1cc(F)ccc1Oc1nncnc1N1CC2(CCN(C(=O)[C@@H]3C[C@@H](F)CN3)CC2)C1)C(C)C", "Cat": "fulfilled"}

From here, focus on the item given below.
IC50 strictly < 40 nM for this molecule? CCN(C(=O)c1cc(F)ccc1Oc1cncnc1N1CC2(CCN(C(=O)[C@H]3NCc4[nH]ncc43)CC2)C1)C(C)C
not fulfilled

###

Tested on: MV-4-11 cells
Test: Cell proliferation assay (CellTiter-Glo), MV-4-11
Type: cell-based, human
Settings: Homo sapiens, MV4-11, 96 h; MV-4-11 (MLL-AF4), 4 days incubation; read-out: Cell antiproliferation assay MV-4-11 IC50
This section presents molecules with their documented IC50 values.
Entry rule: numbers only, all in µM.

{"Molecule": "CCN(C(=O)c1cc(F)ccc1Oc1cncnc1N1CC2(CN(C(=O)[C@@H]3C[C@@H](F)CN3)C2)C1)C(C)C [Example 38]", "Units Symbol": "µM", "IC50": 0.069}
{"Molecule": "C[C@H]1CCN[C@@H]1C(=O)N1CCC2(CC1)CN(c1ncnnc1Oc1ccc(F)cc1-c1ccc(C#N)cc1C1CC1)C2 [Example 79]", "Units Symbol": "µM", "IC50": 0.0059}
{"Molecule": "CCN(C(=O)c1cc(F)ccc1Oc1nncnc1N1CC2(CCN(C(=O)[C@@H]3C[C@@H](F)CN3)CC2)C1)C(C)C [Example 39]", "Units Symbol": "µM", "IC50": 0.043}

Next molecule, please.
What is its IC50 for MV-4-11 cells? Entry: CCN(C(=O)c1cc(F)ccc1Oc1nncnc1N1CC2(CCN(C(=O)[C@H]3NCc4ccccc43)CC2)C1)C(C)C [Example 85]
0.0767

###

System: HL-60 cells
Assay: Cell proliferation assay (CellTiter-Glo), HL-60 control line
Format: cell-based, human
Details: Homo sapiens, 96 h; HL-60 control line, 10 μM, 4 days incubation; read-out: HL-60 (Pct of inhibition at 10 μM)
Result Type: inhibition at 10 µM (%)
Entry rule: numbers only, all in %.

Examples with answers:
{"Molecule": "CCN(C(=O)c1cc(F)ccc1Oc1cncnc1N1CC2(CCN(C(=O)[C@H]3NCC[C@@H]3C)CC2)C1)C(C)C [Example 41]", "Units Symbol": "%", "Test Result": -22.2}
{"Molecule": "CC(C)N(C(=O)c1cc(F)ccc1Oc1nncnc1N1CC2(CCN(C(=O)[C@@H]3C[C@@H](F)CN3)CC2)C1)C(C)C [Example 56]", "Units Symbol": "%", "Test Result": -12.2}
{"Molecule": "CCN(C(=O)c1cc(F)ccc1Oc1nncnc1N1CC2(CCN(C(=O)[C@H]3NCC[C@@H]3CF)CC2)C1)C(C)C [Example 88]", "Units Symbol": "%", "Test Result": 11.4}
{"Molecule": "CCN(C(=O)c1cc(F)ccc1Oc1nncnc1N1CC2(CCN(C(=O)[C@H]3NCCC3(C)C)CC2)C1)C(C)C [Example 65]", "Units Symbol": "%", "Test Result": -3.7}
{"Molecule": "CCN(C(=O)c1cc(F)ccc1Oc1cncnc1N1CC2(CCN(C(=O)[C@@H]3C[C@@H](C)CN3)CC2)C1)C(C)C [Example 47]", "Units Symbol": "%", "Test Result": -10.6}

Find the recorded inhibition at 10 µM belonging to N#Cc1ccc(-c2cc(F)ccc2Oc2nncnc2N2CC3(CCN(C(=O)[C@H]4NC[C@@H]5C[C@@H]54)CC3)C2)c(C2CC2)c1 [Example 78] and report it.
40

Find the recorded inhibition at 10 µM belonging to CCN(C(=O)c1cc(F)ccc1Oc1cncnc1N1CC2(CCN(C(=O)[C@H]3NC[C@@H]4C[C@@H]43)CC2)C1)C(C)C [Example 34] and report it.
-12.2

Find the recorded inhibition at 10 µM belonging to CCN(C(=O)c1cc(F)ccc1Oc1nncnc1N1CC2(CCN(C(=O)[C@@H]3C[C@@H](F)CN3)CC2)C1)C(C)C [Example 39] and report it.
-24.9

Find the recorded inhibition at 10 µM belonging to CCN(C(=O)c1cc(F)ccc1Oc1nncnc1N1CC2(CCN(C(=O)[C@H]3NC[C@@H]4C[C@@H]43)CC2)C1)C(C)C [Example 55] and report it.
-5

Find the recorded inhibition at 10 µM belonging to CC(C)N(CCO)C(=O)c1cc(F)ccc1Oc1cncnc1N1CC2(CCN(C(=O)[C@@H]3C[C@@H](F)CN3)CC2)C1 [Example 49] and report it.
-8.4

Find the recorded inhibition at 10 µM belonging to N#Cc1ccc(-c2cc(F)ccc2Oc2nncnc2N2CC3(CCN(C(=O)[C@@H]4C[C@@H](F)CN4)CC3)C2)c(C2CC2)c1 [Example 67] and report it.
23.8

Find the recorded inhibition at 10 µM belonging to CC(C)n1ncc(Cl)c1-c1cc(F)ccc1Oc1cncnc1N1CC2(CCN(C(=O)[C@@H]3C[C@@H](F)CN3)CC2)C1 [Example 58] and report it.
-4.5

The reported measurements were obtained from patent US20240317748A1.
